Assayed Target: Feline_OSMR_hlgG1_Fc (feline)
Sequence (chain, as listed by the source limits assumed, form in doubt): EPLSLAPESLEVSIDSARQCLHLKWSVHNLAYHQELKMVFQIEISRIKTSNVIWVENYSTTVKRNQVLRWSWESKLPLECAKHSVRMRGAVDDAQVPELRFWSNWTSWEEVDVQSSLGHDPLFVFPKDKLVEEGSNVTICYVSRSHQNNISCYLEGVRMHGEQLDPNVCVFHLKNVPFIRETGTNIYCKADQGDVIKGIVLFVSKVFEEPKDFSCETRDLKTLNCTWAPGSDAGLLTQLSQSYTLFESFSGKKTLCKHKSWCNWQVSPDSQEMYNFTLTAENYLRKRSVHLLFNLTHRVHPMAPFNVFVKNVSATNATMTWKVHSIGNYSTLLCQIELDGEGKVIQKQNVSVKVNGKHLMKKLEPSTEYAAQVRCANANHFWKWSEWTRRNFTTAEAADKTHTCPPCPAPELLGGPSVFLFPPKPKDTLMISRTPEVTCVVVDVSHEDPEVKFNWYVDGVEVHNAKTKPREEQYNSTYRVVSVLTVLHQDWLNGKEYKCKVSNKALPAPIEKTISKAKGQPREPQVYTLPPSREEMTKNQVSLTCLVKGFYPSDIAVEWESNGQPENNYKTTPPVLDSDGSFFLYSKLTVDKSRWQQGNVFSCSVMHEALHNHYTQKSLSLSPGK
Experiment Description: SPR Biacore
Reported Endpoint: kon (M⁻¹ s⁻¹)
Field: numeric (M⁻¹ s⁻¹). Do not append units.

q: Recorded kon of Canine_OSM (ligand) SCSDKYPELLGQLQKQADFMQHTNTLLDLYIRSQGLDKNGLKEHCRERPGAFPSKDALQRLSRRVFLRTLDTTLGQVLLRLAALEQDIPKAQDLEMLSGVKLNIRGFKNNIHCMAQLLPGSSETTEPTPTSPGASPSPTPTLDTFQRRLEGCRFLHGYHRFMRSVGQVFREWGKSLSRSRR , please.
a: 103000

q: Recorded kon of Mu_09E09_VH (SEQ ID NO: 35)_Y57A (antibody, V domains shown) VH: DVKLVESGEGLVKPGGSLKLSCAASGFTFSSYAMSWVRQTPEKRLEWVAYISSGGDAIYYADTVKGRFTISRDNARNTLYLQMSSLKSEDTAMYYCTRDPITGTFAYWGQGTLVTVSA VL: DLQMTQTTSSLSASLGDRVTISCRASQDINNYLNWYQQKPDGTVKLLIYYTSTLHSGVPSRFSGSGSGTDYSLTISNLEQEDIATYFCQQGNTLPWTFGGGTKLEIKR , please.
a: 943000

q: Recorded kon of Mu_10F07_VH (SEQ ID NO: 39)_Y107A (antibody, V domains shown) VH: DVKLVESGEGLVKPGGSLKLSCAASGFTFSSYAMSWVRQTPEKRLEWVTYISSGGDYFYYADTVKGRFTISRDNARNTLYLQMSSLKSEDTAMYYCTRDPITGTFAAWGQGTLVTVSA VL: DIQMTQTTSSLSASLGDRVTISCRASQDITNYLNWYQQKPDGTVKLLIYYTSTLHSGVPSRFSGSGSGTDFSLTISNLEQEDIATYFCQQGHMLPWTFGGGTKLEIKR , please.
a: 173000

q: Recorded kon of Mu_19F07_VL (SEQ ID NO: 49)_F94A (antibody, V domains shown) VH: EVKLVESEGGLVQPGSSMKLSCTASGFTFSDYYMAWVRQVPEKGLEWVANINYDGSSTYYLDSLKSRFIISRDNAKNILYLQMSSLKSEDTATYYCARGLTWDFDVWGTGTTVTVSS VL: DIVMTQSHKFMSPSVGDRVSITCKASQDVDTAVAWYQQKPGQSPKLLIYLASTRHTGVPDRFTGSGSGTDFTLTISNVQSEDLADYFCQQYSRAPLTFGAGTKLELKR , please.
a: 90400

q: Recorded kon of Mu_09E09_VH (SEQ ID NO: 35)_D99A (antibody, V domains shown) VH: DVKLVESGEGLVKPGGSLKLSCAASGFTFSSYAMSWVRQTPEKRLEWVAYISSGGDYIYYADTVKGRFTISRDNARNTLYLQMSSLKSEDTAMYYCTRAPITGTFAYWGQGTLVTVSA VL: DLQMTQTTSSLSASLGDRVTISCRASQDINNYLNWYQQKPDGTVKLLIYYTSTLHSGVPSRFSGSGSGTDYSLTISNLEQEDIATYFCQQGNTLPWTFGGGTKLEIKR , please.
a: 612000
